- Tested on: CAKI-1 renal
- TEST_NAME: NCI-60 one-dose screen, 48 h (100 = growth as untreated, 0 = no growth, -100 = all killed)
- EXPERIMENTAL_PARAMETERS: 10 µM unless noted
- Description: Growth inhibition of the CAKI-1 human tumor cell line is measured as a screen for anti-cancer activity. Cells are grown in 96 well plates and exposed to the test compound for 48 hours. Compounds are tested at a single concentration, which is 10^-5 M for most compounds. The reported endpoint is percent growth (GI% or GIPRCNT), where numbers from 0 - 100% represent growth inhibition, and numbers from -100% - 0 represent cell death. For example, a value of 40 represents 60% growth inhibition. […]
This is part of a sample that, as a whole, favours compounds with a hit. Of some 83,000 tested, about 20% had one in any assay.
PROPERTY_LABEL: growth (%)

> print(dat)
                                    compound  obs.value
 1                  CCC/C(=N/NC(N)=O)c1ccco1       92.7
 2    CC(C)(C)OC(=O)c1ccc(NCc2cc(O)ccc2O)cc1        -36
 3                      CS(=O)(=O)c1nsc(N)n1        103
 4           COc1ccc(/C=N/Nc2nc3ccccc3s2)cc1       79.9
 5        c1ccc2c[n+](Cc3ccc4ccccc4n3)ccc2c1        102
 6  Nc1ccccc1SC1CC(=O)N(c2ccc(I)cc2)C1=O (stereo not drawn)       81.7
 7                 NC(=O)Cc1nc(O)cc(=O)[nH]1       99.2
 8                          CCN(CC)C(=S)SCCO        107
 9  Nc1nc(-c2ccccn2)cc(-c2cc(-c3ccccn3)nc(N)n2)n1       96.7
10                           O=COCCCc1ccccc1        106
11         O=[N+]([O-])c1cccc(N=Cc2ccccc2)c1       88.1
12  Clc1ccc2c(c1)N(C1CCCN(Cc3ccccc3)C1)c1ccccc1S2 (stereo not drawn)       48.7
13  CC1CCC(=O)N1c1ccc(N)cc1 (stereo not drawn)        102

====

- System: EKVX NSCLC
- TEST_NAME: NCI-60 one-dose screen, 48 h (100 = growth as untreated, 0 = no growth, -100 = all killed)
- EXPERIMENTAL_PARAMETERS: 10 µM unless noted
About 83,000 compounds went through this panel and 20% of them were active in at least one assay; those are over-represented in the sample as a whole. Calls of active or inactive are those of the source. How the source made its calls: active means growth percent below 10; inactive means the rest.
PROPERTY_LABEL: growth

> print(dat)
                                    compound  target.entity                  obs.value
 1                    CCCCCCCCCCCCCCCCC(=O)O     EKVX NSCLC            106% (inactive)
 2                      CS(=O)(=O)c1nsc(N)n1     EKVX NSCLC            108% (inactive)
 3  COC1C(OC(N)=O)C(O)C(Oc2ccc3c(O)c(NC(=O)c4ccc(O)c(CC=C(C)C)c4)c(=O)oc3c2C)OC1(C)C (configuration not stated)     EKVX NSCLC            109% (inactive)
 4                    O=C1c2cccnc2-c2ncccc21     EKVX NSCLC  99.6% [100 µM] (inactive)
 5  CC(=O)/C(N=Nc1ccc(S(=O)(=O)c2ccc(N=N/C(C(C)=O)=C(/C)O)cc2)cc1)=C(\C)O     EKVX NSCLC            116% (inactive)
 6     CC1(C)OC(=O)C(=Cc2ccc(C#N)cc2)C(=O)O1     EKVX NSCLC            102% (inactive)
 7  COc1cc2oc3cc(=O)cc4oc(-c5ccccc5)cc(c2c2c1CCC(c1ccccc1)O2)c43 (configuration not stated)     EKVX NSCLC           88.4% (inactive)
 8                          CCOC(=O)c1ccncc1     EKVX NSCLC            104% (inactive)
 9  Clc1ccc2c(c1)N(C1CCCN(Cc3ccccc3)C1)c1ccccc1S2 (configuration not stated)     EKVX NSCLC           74.4% (inactive)
10               Cc1ccc(S(=O)(=O)n2ccnc2)cc1     EKVX NSCLC           90.7% (inactive)
11                  COc1ccc(/C=N/NC(N)=S)cc1     EKVX NSCLC           64.1% (inactive)
12        CCOC(=O)C1=C(C)NC(C)=C(C(=O)OCC)C1     EKVX NSCLC            109% (inactive)

====

- System: RPMI-8226 leukemia
- TEST_NAME: NCI-60 one-dose screen, 48 h (100 = growth as untreated, 0 = no growth, -100 = all killed)
- EXPERIMENTAL_PARAMETERS: 10 µM unless noted
The panel holds about 83,000 compounds, 20% with a hit somewhere; the sample as a whole holds those more often.
# growth listing for each entry below
PROPERTY_LABEL: growth (%)

> print(dat)
                                   molecule  property.label  obs.value
1  CCN(CC)C(CC(=O)c1ccccc1)C(=O)c1ccccc1 (configuration not stated)          growth       86.5
2                  Cc1cc(Cl)nc(Nc2ccccc2)n1          growth        117
3  CCCCCCC(C)CC1=C(O)c2ccccc2C(=O)C1=O (configuration not stated)          growth       37.6
4  CNc1ccc(Cl)cc1S(=O)(=O)c1ccccc1[N+](=O)[O-]          growth       87.3
5                   C=CCN1C(=O)c2ccccc2C1=O          growth       92.9
6              CC(C)(C)OC(=O)NCCc1ccc(N)cc1          growth       91.4
7  COc1ccccc1OCC(O)CO (configuration not stated)          growth       76.7

====

- Test system: OVCAR-3 ovarian
- TEST_NAME: NCI-60 one-dose screen, 48 h
- EXPERIMENTAL_PARAMETERS: 10 µM unless noted
- Description: Growth inhibition of the OVCAR-3 human tumor cell line is measured as a screen for anti-cancer activity. Cells are grown in 96 well plates and exposed to the test compound for 48 hours. Compounds are tested at a single concentration, which is 10^-5 M for most compounds. The reported endpoint is percent growth (GI% or GIPRCNT), where numbers from 0 - 100% represent growth inhibition, and numbers from -100% - 0 represent cell death. For example, a value of 40 represents 60% growth inhibition. […]
Compounds without any hit were thinned out: in the full panel of roughly 83,000, 20% have a hit. Calls of active or inactive are those of the source. The calls were made as follows: active = growth percent below 10; inactive = the rest.
Labels: active, inactive

> print(dat)
                                    molecule     class
 1                      CCCCC/C(C)=N\NC(N)=S  inactive
 2                    N=c1sc2ccccc2n1CC(=O)O  inactive
 3                            CCN(C)c1ccccc1  inactive
 4                 Nc1ccc(Cl)c(S(=O)(=O)O)c1  inactive
 5                         NCCSSC/C=C\CSSCCN  inactive
 6                CC(C)(C)OC(=O)CC1(O)CCCCC1  inactive
 7                     CCCC(=O)Oc1ccc(CC)cc1  inactive
 8       CCn1c2ccc(N(C)C)cc2c2cc(N(C)C)ccc21    active
 9  COCCCNC1=C(C#N)C(=O)NC(c2cccs2)S1 (centres undefined)  inactive
10                    O=C1c2cccnc2-c2ncccc21  inactive
11                  COc1cc2c(cc1O)C(=O)CCCC2  inactive
12  COC(=O)c1nc(N)nc(C(=O)OC)c1C(=O)c1cccc2ccccc12  inactive
13                 O=C(c1ccccc1)C1(Br)CCCCC1  inactive
14                  Cc1cc(Cl)nc(Nc2ccccc2)n1  inactive

====

# growth listing for each entry below
- Test system: EKVX NSCLC
- TEST_NAME: NCI-60 one-dose screen, 48 h (100 = growth as untreated, 0 = no growth, -100 = all killed)
- EXPERIMENTAL_PARAMETERS: 10 µM unless noted
Compounds without any hit were thinned out: in the full panel of roughly 83,000, 20% have a hit.
PROPERTY_LABEL: growth (%)

> print(dat)
                                    compound  target.entity  property.label  obs.value
 1  CCOC(=O)c1ccc(N2C(=O)C(Cl)(c3ccccc3)C2c2ccco2)cc1 (configuration not stated)     EKVX NSCLC          growth       61.2
 2         Cn1c(-c2ccccc2)cc(=O)cc1-c1ccccc1     EKVX NSCLC          growth        121
 3                          CCN(CC)C(=S)SCCO     EKVX NSCLC          growth        106
 4  O=[N+]([O-])c1ccc(NC(c2ccccc2)c2ccc3cccnc3c2O)cc1 (configuration not stated)     EKVX NSCLC          growth       19.9
 5                     CCc1ccc(OC(=O)CCl)cc1     EKVX NSCLC          growth       98.6
 6           COc1ccc(/C=N/Nc2nc3ccccc3s2)cc1     EKVX NSCLC          growth       67.4
 7  COC(=O)c1nc(N)nc(C(=O)OC)c1C(=O)c1ccc(F)cc1     EKVX NSCLC          growth        104
 8  CCCCOC1NC(=O)NC(=O)C1(F)C(=O)OCC (configuration not stated)     EKVX NSCLC          growth       74.8
 9                CCOC(=N)c1ccc(C(=N)OCC)cc1     EKVX NSCLC          growth       90.2
10  C/C(=C\c1ccccc1)C(O)C(=O)c1nc2ccc([N+](=O)[O-])cc2[nH]c1=O (configuration not stated)     EKVX NSCLC          growth       92.6
11                    N=c1sc2ccccc2n1CC(=O)O     EKVX NSCLC          growth        104
12               O=S(=O)(O)c1ccc2cc(O)ccc2c1     EKVX NSCLC          growth        106
